The reported measurements were obtained from patent US12378243B2.

Could you please report measured IC50 for the items listed next?
target.or.test.system: KRAS G12V mutant (Homo sapiens, UniProt P01116, G12V)
Sequence (P01116 1-188 isoform P01116-2 G12V): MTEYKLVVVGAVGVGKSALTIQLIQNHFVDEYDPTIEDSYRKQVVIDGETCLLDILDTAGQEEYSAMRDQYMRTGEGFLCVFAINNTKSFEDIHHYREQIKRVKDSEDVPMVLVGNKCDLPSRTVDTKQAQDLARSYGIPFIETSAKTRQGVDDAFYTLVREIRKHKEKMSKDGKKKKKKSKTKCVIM
protocol: GDP-GTP exchange assay, KRAS G12V
conditions.used: bodipy loaded KRAS G12V 2.5 nM; 3 hours incubation after adding GppNHp-SOS1 mixture; read-out: G12V_exchange

Would you mind telling me what IC50 value was observed for COC(=O)N1CCC[C@@H]1c1c(Cl)c2c(-c3ccc(C(C)(C)O)nc3)nc3c(F)c(-c4cccc(Cl)c4Cl)c(CCC#N)cc3c2n1[C@H]1[C@H]2CN[C@@H]1C2 ?
< 0.1 µM

What do you get for Cc1cnc(-c2nc3c(F)c(-c4cccc(Cl)c4C)c(CCC#N)cc3c3c2cc([C@@H](C)n2ccncc2=O)n3[C@H]2[C@H]3CN[C@@H]2C3)cn1 (single isomer, unassigned) ?
< 0.1 µM

Likewise for C[C@H](c1cc2c(-c3ccc(C(C)(C)O)nc3)nc3c(F)c(-c4cccc(Cl)c4Cl)c(CCC#N)cc3c2n1[C@H]1[C@H]2CN[C@@H]1C2)n1ccncc1=O ?
< 0.1 µM

Same again, this time with Cc1cc2c(-c3c(CCC#N)cc4c(nc(O[C@@H](C)[C@@H]5CCCN5C)c5cc(C)n([C@H]6[C@H]7CN[C@@H]6C7)c54)c3F)c[nH]c2cc1F
< 0.1 µM

Also, Cc1nc2c(F)c(-c3cccc(Cl)c3Cl)c(CCC#N)cc2c2c1cc([C@@H](C)NC(=O)C(F)F)n2[C@H]1[C@H]2CN[C@@H]1C2 please.
< 0.1 µM

Same question for CNC(=O)c1ccc(-c2nc3c(F)c(-c4cccc(Cl)c4C)c(CCC#N)cc3c3c2cc([C@@H](C)n2ccncc2=O)n3[C@H]2[C@H]3CN[C@@H]2C3)cn1 (single isomer, unassigned) please.
< 0.1 µM

Now the same for C[C@H](c1cc2c(-c3ccc(C(C)(C)O)nc3)nc3c(F)c(-c4cccc5ccc(F)cc45)c(CCC#N)cc3c2n1[C@H]1[C@H]2CN[C@@H]1C2)N1CCOCC1=O
< 0.1 µM

Consider next the compound Cc1cc2c(O[C@@H](C)[C@@H]3CCCN3C)nc3c(F)c(-c4cccc5ccc(F)cc45)c(CCC#N)cc3c2n1[C@H]1[C@H]2CN[C@@H]1C2 in the same way.
< 0.1 µM

Please do the same for Cc1nc2c(F)c(-c3cccc(Cl)c3Cl)c(CCC#N)cc2c2c1cc([C@@H](C)NC(=O)[C@@H]1CCCO1)n2[C@H]1[C@H]2CN[C@@H]1C2 as well.
< 0.1 µM

Let us now turn to CCOc1nc2c(F)c(-c3cc(O)cc4ccccc34)c(CCC#N)cc2c2c1cc(C(C)N1CCOCC1=O)n2[C@H]1[C@H]2CN[C@@H]1C2 (some centres unmarked)
< 0.1 µM

Field entry: CNC(=O)c1ccc(-c2nc3c(F)c(-c4cccc(Cl)c4Cl)c(CCC#N)cc3c3c2cc([C@H]2CCCN2C(=O)OC)n3[C@H]2[C@H]3CN[C@@H]2C3)cn1
< 0.1 µM
